Values from PubChem BioAssay

Assay: S. pombe growth modifiers, basal conditions – strain 972, OD600, 24 h, no modulator, primary screen (AID 1090);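 note: basal condition with compound alone and no growth modifier present; test concentration not given here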
Conditions: S. pombe 972 growth, higher = more signal, called active from +8 up or from −8 down
Binary call on z-score: t from 0.4 upward, f beneath that.

**Q:** Confirm if z-score reported for the compound C=CC[C@]1(C(N)=O)COC(c2ccc(OCCCO)cc2)=N1 is 0.4 or above.
**A:** f

**Q:** Note, next up: CN(C)CCCCNC(=O)[C@@H]1C[C@@H]2C(=O)N[C@@H](CCCCN)C(=O)N2[C@@H]1c1ccc(O)cc1
**A:** t

**Q:** Thanks! And C=CC[C@@]1(C(=O)N2CCCCC2)N=C(c2ccc(OCCCO)cc2)O[C@@H]1c1ccccc1CN=[N+]=[N-] ?
**A:** f

**Q:** Quick one: O=C(O)C1N=C(c2ccc(OCCCO)cc2)N(c2ccccc2)O1 (stereo not drawn)
**A:** t

**Q:** What do we get for O=C1O[C@@H](c2ccccc2)[C@@H](c2ccccc2)N2[C@@H](c3ccccc3OCCO)[C@]3(C(=O)Nc4ccc(C#CC5(O)CCCCCC5)cc43)[C@@H](C(=O)N3CCN(c4ncccn4)CC3)[C@H]12 ?
**A:** t

**Q:** Input Cc1ccc([C@H]2C(C(=O)O)=CCN2S(=O)(=O)c2ccc(C)cc2)cc1
**A:** f

**Q:** // query: CCCCCCc1nc(-c2ccc(-c3ccc(Cl)c(Cl)c3)o2)cc2c1[Si](C(C)C)(C(C)C)O[C@H]2c1ccccc1
**A:** f

**Q:** Follow-up entry: O=C1C2C=CC(C(O)C=Cc3ccc([N+](=O)[O-])cc3)N(Nc3ccccc3F)C2C(=O)N1c1ccccc1 (stereo not drawn)
**A:** t

====

Answer each item with its documented composite z-score.
Target: Torsin-1A (Homo sapiens) (UniProt O14656)
Sequence (O14656 whole entry, looked up): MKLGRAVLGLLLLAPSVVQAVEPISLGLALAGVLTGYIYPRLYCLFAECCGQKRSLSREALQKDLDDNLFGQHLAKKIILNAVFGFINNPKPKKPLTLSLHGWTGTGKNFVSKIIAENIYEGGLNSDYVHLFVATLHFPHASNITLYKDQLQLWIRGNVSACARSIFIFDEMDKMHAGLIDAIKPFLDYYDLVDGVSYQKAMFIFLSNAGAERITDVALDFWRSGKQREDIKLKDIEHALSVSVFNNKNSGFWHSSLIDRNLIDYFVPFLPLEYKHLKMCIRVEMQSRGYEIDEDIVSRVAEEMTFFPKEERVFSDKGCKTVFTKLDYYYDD
Assay: torsin A mutant lysate binding on microarrays – cell lysate, small-molecule microarray, COS7 lysate, 635/667 nm fluorescence, primary screen (AID 1150);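 note: score pools 667 nm emission and signal to noise measuring lysate protein binding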
Conditions: COS7 hTOR1A mutant lysate, 635 nm fluorescence, higher = more signal
// keep it numeric: no unit symbol after the value

**Q:** Observed composite z-score on Torsin-1A (Homo sapiens) (UniProt O14656) for CCOc1cc(C(O)C2C=CC3C(=O)N(c4ccccc4)C(=O)C3N2Nc2ccc(C(C)C)cc2)ccc1O (configuration not stated) , please.
**A:** 0.57

**Q:** Consider next the compound O[C@@H](Cc1ccccc1)[C@@H](/C=C/C1CC1)NCc1cccc(Cl)c1 in the same way.
**A:** -0.447

**Q:** Now give it for CCOC(=O)C1=CC[C@@H](c2ccccc2)N(S(=O)(=O)c2ccc(C)cc2)[C@H]1c1ccc(CC)cc1 too.
**A:** 0.359

**Q:** Subsequent entry: COc1cc(CO)cc(I)c1O[C@H]1C=C(C(=O)NCCO)C[C@@H](NC[C@@H]2CCCO2)[C@@H]1O
**A:** 0.127

**Q:** Try [N-]=[N+]=NCc1ccccc1[C@@H]1OC(c2ccc(OCCCO)cc2)=N[C@]1(CCS(=O)(=O)c1ccccc1)C(=O)N1CCCCC1 next.
**A:** 0.447

**Q:** What do you get for CC(C)CNC(=O)[C@@]1(Cc2ccccc2I)c2ccccc2C(=O)N(Cc2ccccc2C(F)(F)F)[C@H]1c1ccc(CO)cc1 ?
**A:** -0.185

**Q:** Let us now turn to C=CCNC(=O)[C@H]1[C@@H]2C(=O)O[C@@H](c3ccccc3)[C@@H](c3ccccc3)N2[C@@H](c2ccc(OCCO)cc2)[C@]12C(=O)Nc1ccc(C#CCC(C(=O)OC)C(=O)OC)cc12
**A:** 0.862

====

Assay: budding yeast growth modifiers under rapamycin – strain BY4716, OD600, 96 h, primary screen (AID 1091); note: test concentration not given here
Details: S. cerevisiae BY4716 + rapamycin, higher = more signal, called active from +8 up or from −8 down
Active and inactive are the calls of the source.
readout: z-score

**Q:** What does the record list as z-score for COc1cc(OC)c(C(O)C2C=CC3C(=O)NC(=O)C3N2Nc2ccccn2)cc1Br (stereo not given) ?
**A:** 0.204 (inactive)

**Q:** Repeat with Cc1ccc(/C=C/C=O)cc1
**A:** -0.141 (inactive)

**Q:** // repeat for O=C(O)[C@@]1(CCS(=O)(=O)c2ccccc2)N=C(c2ccc(OCCCO)cc2)O[C@H]1c1ccccc1 and report
**A:** -0.934 (inactive)

**Q:** Queued: CC(C)(C)OC(=O)CC[C@]1(C(N)=O)N=C(c2ccc(OCCCO)cc2)O[C@H]1c1ccccc1
**A:** 0.793 (inactive)

**Q:** Cool, now COc1ccc(CCNC(=O)[C@@]2(C)c3ccccc3C(=O)N(c3ccc(C)cn3)[C@H]2c2ccc(CO)cc2)cc1
**A:** -1.17 (inactive)

====

Test: growth modulation of vineyard yeast isolate – strain RM11-1a, OD600, basal, 24 h, primary screen (AID 1177);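 note: cultures grown under basal conditions with no added stressor; test concentration not given here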
Settings: S. cerevisiae RM11-1a growth, OD600, 24 h; higher = more signal, called active from +8 up or from −8 down
// criterion not met strictly below 0.04 in z-score; criterion met otherwise

**Q:** Reported z-score at or above 0.04? [N-]=[N+]=Nc1ccccc1[C@H]1OC(c2ccc(OCCCO)cc2)=N[C@@]1(CCS(=O)(=O)c1ccccc1)C(=O)NCc1ccccc1
**A:** criterion not met

**Q:** Let us now turn to CC(=O)n1cc(C(O)C2C=CC3C(=O)NC(=O)C3N2Nc2ccccn2)c2ccccc21 (configuration not stated)
**A:** criterion met

**Q:** Repeat for the following molecule: COC(=O)[C@@]1(Cc2ccccc2)[C@H]2c3cc(C(=O)N4CCCC4)n(Cc4ccc(O)c(OC)c4)c3C[C@H]2CN1C(=O)c1ccccc1
**A:** criterion met

**Q:** Then what about the molecule COCCOC(=O)N1C(=O)[C@@]2(c3cc(C#CCCO)ccc31)[C@H](c1ccc(O)cc1)N1[C@H](c3ccccc3)[C@H](c3ccccc3)OC(=O)[C@H]1[C@@H]2C(=O)N1CCN(c2ncccn2)CC1 ?
**A:** criterion not met

**Q:** Then O=C(NC1CC1)[C@@H]1c2ccccc2C(=O)N(C2Cc3ccccc3C2)[C@H]1c1ccc(CO)cc1 ?
**A:** criterion met

**Q:** Likewise for COc1ccc([C@H]2C[C@H]3C(Br)=C[C@@]2(CO)C(=O)[C@]32CO2)cc1 ?
**A:** criterion not met

**Q:** Now give it for CS(=O)(=O)CCOC(=O)C1=CC(CCCO)=CC(C2CC2)N(Cc2cc3c(cc2Br)OCO3)C=C1C(=O)OCCS(C)(=O)=O (configuration not stated) too.
**A:** criterion met

====

Tested on: Wnt5a (protein binding on small-molecule microarray)
Test: small molecules binding Wnt5a protein – biophysical, small-molecule microarray, 635/667 nm fluorescence, primary screen (AID 1142);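 note: fluorescence read at 667 nm with signal to noise per printed feature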
Settings: 635 nm fluorescence, higher = more signal
Exercise: for every item that follows, state its recorded composite z-score.
Returns: the value as a bare number; no unit string appended.

**Q:** I have this compound here, CC1CC/C=C\[C@H]2OC34C=CCN(c5ccc6ccccc6c5)C(=O)[C@H]3N(CCO)C(=O)[C@@H]4C2C(=O)O1 (some centres undefined) , and I need its recorded composite z-score.
**A:** 0.451

**Q:** Consider next the compound COc1ccc([C@H]2OC[C@@H]3CCC(=O)N32)cc1 in the same way.
**A:** 0.279

**Q:** Would you kindly repeat that for CO[C@H]1O[C@H](CO)[C@@H](OC(=O)Nc2ccc(Br)cc2)[C@@H]2OC(=O)[C@H](Cc3cccc(Br)c3)C/C=C/C[C@@H](Cc3cccc(Br)c3)C(=O)O[C@@H]12 ?
**A:** -0.149

**Q:** Would you kindly repeat that for O=C1C2C=CC(C(O)c3cc(C(F)(F)F)cc(C(F)(F)F)c3)N(Nc3ccccc3)C2C(=O)N1c1ccccc1 (centres undefined) ?
**A:** 0.0943

**Q:** Okay, and CCN(CC)c1ccc(N2CC=CC34O[C@@H]5C=CCOC(=O)[C@@H]5[C@H]3C(=O)N(CCCCCCO)[C@@H]4C2=O)cc1 (some centres undefined) ?
**A:** -0.452

**Q:** Repeat with CS(=O)(=O)CCOC(=O)C1=CC(CCCO)=CC(c2ccc(CN3CCCC3)cc2)N(Cc2cccc(OC(F)(F)F)c2)C=C1C(=O)OCCS(C)(=O)=O (centres undefined)
**A:** 0.531

**Q:** Queued: [N-]=[N+]=Nc1ccccc1C[C@]1(C(=O)NCC(O)CO)N=C(c2ccc(OCCCO)cc2)O[C@H]1c1ccccc1 (some centres undefined)
**A:** -0.541

**Q:** Same lookup for C=CC[C@@]1(C(=O)N2CCCCC2)N=C(c2ccc(OCCCO)cc2)O[C@@H]1c1ccccc1N=[N+]=[N-] , please.
**A:** 0.288

**Q:** And then CCOC(=O)[C@H]1C/C=C/C[C@H](C(=O)OCC)C(=O)O[C@H]2[C@@H](OC)O[C@H](CO)[C@@H](OC(=O)c3ccc(Br)cc3)[C@@H]2OC1=O , what is it?
**A:** 0.168

**Q:** And for CCOC(=O)C1=CC[C@H]2C(=O)N(c3ccccc3)C(=O)[C@@H]12 ?
**A:** 0.125

**Q:** Same question, CC(c1ccccc1)C(O)C1C=CC2C(=O)N(C)C(=O)C2N1NC(=O)OC(C)(C)C (centres undefined) this time
**A:** 0.472

**Q:** Subsequent entry: [N-]=[N+]=Nc1ccccc1C[C@@]1(C(=O)N2CCCCC2)N=C(c2ccc(OCCCO)cc2)O[C@@H]1c1ccccc1
**A:** 0.46

**Q:** // query: COc1ccc(C#Cc2ccc3c(c2)[C@]2(C(=O)N3)[C@H](c3ccc(O)cc3)N3[C@H](c4ccccc4)[C@H](c4ccccc4)OC(=O)[C@H]3[C@@H]2C(=O)N2CCc3cc(OC)c(OC)cc3C2)cc1
**A:** 0.636

**Q:** Same again, this time with CS(=O)(=O)CCOC(=O)C1=CC(CCCO)=CC(C2CC2)N(Cc2cc3c(cc2Br)OCO3)C=C1C(=O)OCCS(C)(=O)=O (centres undefined)
**A:** 0.0339

**Q:** Next entry: CCCC1(C(=O)OC)C=C2C(=C(c3ccccc3)C(=O)C2C)CN1 (centres undefined)
**A:** 0.256

**Q:** Then C=CCOC(=O)[C@H]1[C@@H]2C(=O)O[C@@H](c3ccccc3)[C@@H](c3ccccc3)N2[C@@H](c2ccc(OCCOC(=O)[C@H]3C[C@H]4C(=O)N[C@@H](CCCCN(C)C)C(=O)N4[C@H]3c3cccc(OCCO)c3)cc2)[C@]12C(=O)Nc1ccc(I)cc12 ?
**A:** 0.559

**Q:** Likewise for COc1ccc(NN2C(C(O)c3ccc(N(C)C)cc3)C=CC3C(=O)N(C4CCCCC4)C(=O)C32)cc1 (centres undefined) ?
**A:** 0.66

**Q:** Input CC#CC(=O)Oc1ccc(Br)cc1C=CC(=O)OCC
**A:** -0.0465

**Q:** Repeat with C[N+](C)(C)CCCC[C@@H]1NC(=O)[C@@H]2C[C@H](C(=O)NCCCCCN)[C@H](c3ccc(O)cc3)N2C1=O
**A:** 0.557

**Q:** Moving on to the next compound: CCOC(=O)C[C@H]1[C@H](OC(=O)c2ccc(C(=O)c3ccccc3)cc2)[C@@H](NC(=O)Cc2ccc(OC)cc2)c2cc(OCCCO)ccc2N1C(=O)c1ccc2ccccc2n1
**A:** 0.112

**Q:** Note, next up: [N-]=[N+]=NCc1ccccc1C[C@@]1(C(=O)NCC(O)CO)N=C(c2ccc(OCCCO)cc2)O[C@@H]1c1ccccc1 (some centres undefined)
**A:** 0.423

**Q:** Repeat with O=C(NC1CC1)[C@@H]1c2ccccc2C(=O)N(C2Cc3ccccc3C2)[C@H]1c1ccc(CO)cc1
**A:** 0.336

**Q:** Next record, please: COCCOC(=O)N1C(=O)[C@@]2(c3cc(C#CC4(O)CCCCCC4)ccc31)[C@H](C(=O)Nc1nc3ccccc3s1)[C@H]1C(=O)O[C@H](c3ccccc3)[C@H](c3ccccc3)N1[C@@H]2c1ccc(OCCO)cc1
**A:** 0.564

**Q:** Same thing, different compound: CN(C)C(=O)[C@]1(Cc2ccccc2)N=C(c2ccc(OCCCO)cc2)O[C@@H]1c1ccccc1N=[N+]=[N-]
**A:** 0.435

**Q:** Queued: O=C1C2C=CC(C(O)c3ccc(-c4ccccc4)s3)N(Nc3ccccc3)C2C(=O)N1c1ccccc1 (centres undefined)
**A:** 0.155

**Q:** What would you report for COCC(=C=CC[C@H](O)c1ccccc1OCCO)CCO ?
**A:** 0.0821

**Q:** For COC(=O)[C@@]1(Cc2ccc(OC)cc2)[C@H]2c3cc(C(=O)N4CCCC4)n(Cc4nc5ccccc5[nH]4)c3C[C@H]2CN1C(=O)c1ccccc1 then?
**A:** 0.704

**Q:** Note, next up: O=C1NC(=O)C2C1C=CC(C(O)c1ccc(-c3ccccc3)s1)N2Nc1ccc(Cl)cc1Cl (centres undefined)
**A:** 0.289

**Q:** Try this compound next: C=C(CCCC)/C(=C/C[C@H](OC(C)=O)c1ccccc1OCCO)c1cnc2ccccc2c1
**A:** 0.382
